measured.on: Androgen Receptor (Homo sapiens, UniProt P10275+P40337, T878A)
Construct: Compounds have been evaluated in this assay in LNCaP and/or VCaP cells utilizing similar protocols; endogenous in cells; host or cells: LNCaP cells
Sequence (P10275 whole entry T878A): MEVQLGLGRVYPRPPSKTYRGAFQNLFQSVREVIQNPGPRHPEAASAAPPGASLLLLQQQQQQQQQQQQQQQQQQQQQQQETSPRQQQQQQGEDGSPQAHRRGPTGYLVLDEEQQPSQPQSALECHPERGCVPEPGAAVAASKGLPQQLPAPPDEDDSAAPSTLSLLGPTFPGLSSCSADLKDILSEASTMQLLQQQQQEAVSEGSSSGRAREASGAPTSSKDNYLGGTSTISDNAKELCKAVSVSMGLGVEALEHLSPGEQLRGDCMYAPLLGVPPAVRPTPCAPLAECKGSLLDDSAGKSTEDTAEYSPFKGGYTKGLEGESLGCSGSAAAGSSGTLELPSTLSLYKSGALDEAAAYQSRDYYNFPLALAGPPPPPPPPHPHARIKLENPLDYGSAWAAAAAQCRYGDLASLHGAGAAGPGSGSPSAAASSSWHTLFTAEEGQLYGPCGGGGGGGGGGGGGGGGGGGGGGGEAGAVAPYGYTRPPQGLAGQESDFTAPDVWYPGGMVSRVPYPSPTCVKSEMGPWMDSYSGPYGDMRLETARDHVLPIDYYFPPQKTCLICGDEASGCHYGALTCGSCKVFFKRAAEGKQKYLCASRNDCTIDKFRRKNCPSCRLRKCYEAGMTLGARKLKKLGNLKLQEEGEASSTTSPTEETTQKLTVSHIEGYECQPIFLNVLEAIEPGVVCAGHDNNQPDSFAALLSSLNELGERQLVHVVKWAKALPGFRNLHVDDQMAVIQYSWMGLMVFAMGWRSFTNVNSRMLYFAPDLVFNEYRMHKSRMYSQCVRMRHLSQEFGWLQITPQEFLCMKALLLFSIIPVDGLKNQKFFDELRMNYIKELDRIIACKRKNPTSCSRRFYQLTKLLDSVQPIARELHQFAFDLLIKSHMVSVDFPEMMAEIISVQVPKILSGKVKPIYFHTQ
Sequence (P40337 whole entry): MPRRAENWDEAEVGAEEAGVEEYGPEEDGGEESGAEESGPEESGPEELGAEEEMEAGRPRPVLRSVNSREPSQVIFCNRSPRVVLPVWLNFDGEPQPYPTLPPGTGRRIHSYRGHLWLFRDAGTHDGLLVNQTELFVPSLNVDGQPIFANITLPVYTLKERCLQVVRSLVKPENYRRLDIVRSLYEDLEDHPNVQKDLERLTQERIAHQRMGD
Sequence (Q15369 whole entry partner): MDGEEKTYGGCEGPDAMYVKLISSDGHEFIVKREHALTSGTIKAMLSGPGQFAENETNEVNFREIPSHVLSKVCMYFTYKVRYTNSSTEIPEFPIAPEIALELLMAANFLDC
Sequence (Q15370 whole entry partner): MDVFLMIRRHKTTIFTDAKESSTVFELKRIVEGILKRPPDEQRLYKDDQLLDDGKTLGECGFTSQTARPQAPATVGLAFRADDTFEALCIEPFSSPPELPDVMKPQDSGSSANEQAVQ
run.description: Androgen Receptor ELISA assay (PathScan AR ELISA) in LNCaP cells: AR degradation, Dmax and DC50
Assay type: cell-based
test.conditions: highest percentage of Androgen Receptor degradation
Quick reference: Dmax of the listed items.
endpoint.name: Dmax

* Cc1ncsc1-c1ccc(CNC(=O)[C@@H]2C[C@@H](O)CN2C(=O)[C@@H](NC(=O)CCOc2ccc(CCOc3ccc(N4C(=S)N(c5ccc(C#N)c(C(F)(F)F)c5)C(=O)C4(C)C)cc3)cc2)C(C)(C)C)cc1 | > 71%
* Cc1ncsc1-c1ccc(CNC(=O)[C@@H]2C[C@@H](O)CN2C(=O)[C@@H](NC(=O)COCCOCCOCCCCCOc2ccc(N3C(=S)N(c4ccc(C#N)c(C(F)(F)F)c4)C(=O)C3(C)C)cc2)C(C)(C)C)cc1 | 51 to 70%

* * *

run.description: PROTAC prodrug oral pharmacokinetics in CD-1 mice
Assay type: in vivo
test.conditions: male, mouse, plasma, 10 mg/kg, 10 mpk PO, vehicle ESD-4, prodrug measured, read-out: Plasma Exposure Prodrug Cmax
endpoint.name: Cmax (ng/mL)

- CC(=O)O[C@@H]1C[C@@H](C(=O)N[C@@H](C)c2ccc(-c3scnc3C)cc2)N(C(=O)[C@@H](NC(=O)COCCCCCNc2ccc(C(=O)N[C@H]3C(C)(C)[C@H](Oc4ccc(C#N)c(Cl)c4)C3(C)C)cc2)C(C)(C)C)C1: 181

* * *

measured.on: Androgen Receptor (Homo sapiens, UniProt P10275)
Construct: endogenous in cells; host or cells: VCaP cells
Sequence (P10275 whole entry): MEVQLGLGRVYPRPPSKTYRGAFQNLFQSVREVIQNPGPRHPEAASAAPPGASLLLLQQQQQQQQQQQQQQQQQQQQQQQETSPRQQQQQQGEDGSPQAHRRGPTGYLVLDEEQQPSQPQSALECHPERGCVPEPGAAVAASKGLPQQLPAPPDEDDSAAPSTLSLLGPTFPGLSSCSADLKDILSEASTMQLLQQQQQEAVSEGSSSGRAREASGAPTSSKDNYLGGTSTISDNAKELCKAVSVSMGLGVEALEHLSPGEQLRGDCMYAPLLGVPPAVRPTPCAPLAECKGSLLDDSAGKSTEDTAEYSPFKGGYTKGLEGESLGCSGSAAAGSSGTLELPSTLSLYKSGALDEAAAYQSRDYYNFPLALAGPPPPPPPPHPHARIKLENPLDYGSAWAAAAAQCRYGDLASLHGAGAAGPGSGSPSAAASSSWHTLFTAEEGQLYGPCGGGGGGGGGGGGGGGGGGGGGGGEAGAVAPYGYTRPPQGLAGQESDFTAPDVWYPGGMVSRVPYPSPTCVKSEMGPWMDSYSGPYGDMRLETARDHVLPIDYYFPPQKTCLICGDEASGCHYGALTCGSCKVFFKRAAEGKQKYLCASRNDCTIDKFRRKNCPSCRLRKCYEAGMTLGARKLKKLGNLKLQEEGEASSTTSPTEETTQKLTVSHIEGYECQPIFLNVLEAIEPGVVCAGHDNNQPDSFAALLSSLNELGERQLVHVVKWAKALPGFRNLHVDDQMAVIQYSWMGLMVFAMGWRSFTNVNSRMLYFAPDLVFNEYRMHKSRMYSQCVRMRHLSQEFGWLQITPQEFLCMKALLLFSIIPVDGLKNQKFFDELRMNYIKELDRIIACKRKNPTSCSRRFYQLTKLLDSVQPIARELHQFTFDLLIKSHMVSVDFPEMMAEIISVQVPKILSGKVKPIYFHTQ
run.description: Androgen Receptor ELISA assay (PathScan AR ELISA) in VCaP cells: AR degradation, Dmax and DC50
Type: cell-based
test.conditions: VCaP cells; Table 34; read-out: VCaP DC50
endpoint.name: DC50

- COc1cc(N2C(=O)C(C)(C)N(c3ccc(OCCOc4ccc(OCC(=O)N[C@H](C(=O)N5C[C@H](O)C[C@H]5C(=O)NCc5ccc(-c6scnc6C)cc5)C(C)(C)C)cc4)c(F)c3)C2=S)ccc1C#N [Example 323]: < 50 nM
- CC(C)(C)[C@H](NC(=O)COCCCCOc1ccc(C(=O)N[C@H]2C(C)(C)[C@H](Oc3ccc(C#N)c(Cl)c3)C2(C)C)cc1)C(=O)N1C[C@H](O)C[C@H]1C(=O)NCc1ccc(-c2ccccc2)cc1 [Example 407]: < 50 nM

* * *

Form field: DC50 (one value per entry).
measured.on: Androgen Receptor (Homo sapiens)
Construct: endogenous in cells; host or cells: VCaP cells
run.description: Androgen Receptor ELISA assay (PathScan AR ELISA) in VCaP cells: AR degradation, Dmax and DC50
Assay type: cell-based
test.conditions: VCaP cells; Table 35; read-out: VCaP DC50
endpoint.name: DC50

* CC(C)(C)[C@H](NC(=O)COCCOc1ccc(-c2ccc(C(=O)N[C@H]3C(C)(C)[C@H](Oc4ccc(C#N)c(Cl)c4)C3(C)C)cc2)cc1)C(=O)N1C[C@H](O)C[C@H]1C(=O)NCc1ccc(Cl)cc1 | > 501 nM
* Cc1ncsc1-c1ccc([C@H](CN)NC(=O)[C@@H]2C[C@@H](O)CN2C(=O)[C@@H](NC(=O)COCCCCCOc2ccc(C(=O)N[C@H]3C(C)(C)[C@H](Oc4ccc(C#N)c(Cl)c4)C3(C)C)cc2)C(C)(C)C)cc1 | < 50 nM
* Cc1ncsc1-c1ccc(CNC(=O)[C@@H]2C[C@@H](O)CN2C(=O)[C@@H](NC(=O)COCCNc2ccc(-c3ccc(C(=O)N[C@H]4C(C)(C)[C@H](Oc5ccc(C#N)c(Cl)c5)C4(C)C)cc3)cn2)C(C)(C)C)nc1 | > 501 nM
* CC(C)(C)[C@H](NC(=O)COCCCCCNc1ccc(C(=O)N[C@H]2C(C)(C)[C@H](Oc3ccc(C#N)c(Cl)c3)C2(C)C)cc1)C(=O)N1C[C@H](O)C[C@H]1C(=O)NCc1ccc(Cl)cc1 | < 50 nM
